pKi: −log10 of the molar value.
Please consider the recorded pKi for hCA I (Homo sapiens) in what follows.
MEASURED_ENDPOINT: pKi

MOLECULE	RECORDED_RESULT
COc1ccc(C=C(NC(=O)c2ccccc2)C(=O)Nc2ccc(S(N)(=O)=O)cc2)cc1 [Compound 5e]	6.00
NS(=O)(=O)c1ccc(NC(=O)C(=Cc2ccc(Br)cc2)NC(=O)c2ccccc2)cc1 [Compound 5c]	5.62
NS(=O)(=O)c1ccc(NC(=O)C(=Cc2ccc(Cl)cc2Cl)NC(=O)c2ccccc2)cc1 [Compound 5b]	5.22
Cc1ccc(C=C(NC(=O)c2ccccc2)C(=O)Nc2ccc(S(N)(=O)=O)cc2)o1 [Compound 5h]	5.09
Cc1ccc(C=C(NC(=O)c2ccccc2)C(=O)Nc2ccc(S(N)(=O)=O)cc2)cc1 [Compound 5d]	6.10
COc1ccc(C=C(NC(=O)c2ccccc2)C(=O)Nc2ccc(S(N)(=O)=O)cc2)cc1OC [Compound 5g]	5.66
NS(=O)(=O)c1ccc(NC(=O)C(=Cc2ccc(Cl)cc2)NC(=O)c2ccccc2)cc1 [Compound 5a]	5.40
COc1ccc(C=C(NC(=O)c2ccccc2)C(=O)Nc2ccc(S(N)(=O)=O)cc2)c(OC)c1 [Compound 5f]	5.29
